Ki overview
molecular target: CB2 receptors (Mus musculus, UniProt P47936); construct: the complete brain (excluding the cerebellum) and the spleen were quickly dissected and kept in ice; from tissue; host or cells: mouse spleen, membrane preparation; experiment: biochemical; type: binding
Sequence (P47936 whole entry): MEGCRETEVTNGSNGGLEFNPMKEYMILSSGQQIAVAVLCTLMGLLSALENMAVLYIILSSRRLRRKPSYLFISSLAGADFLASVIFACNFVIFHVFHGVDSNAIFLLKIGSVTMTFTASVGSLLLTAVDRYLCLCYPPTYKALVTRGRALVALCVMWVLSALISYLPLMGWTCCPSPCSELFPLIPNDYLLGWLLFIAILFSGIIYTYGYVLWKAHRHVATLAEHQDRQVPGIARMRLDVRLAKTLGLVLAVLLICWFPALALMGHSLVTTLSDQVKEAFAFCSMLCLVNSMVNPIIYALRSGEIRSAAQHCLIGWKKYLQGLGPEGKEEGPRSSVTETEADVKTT
observation type: Ki (nM)

molecule | experimental result
Cc1cc2c(s1)-c1c(c(C(=O)NCC3CCC4CC3C4(C)C)nn1-c1ccc(F)cc1F)C2 (stereo not drawn) | 5.8
CC1(C)C2CCC(CNC(=O)c3nn(-c4ccc(Cl)cc4Cl)c4c3CCc3sc(-c5ccccc5)cc3-4)C1C2 (stereo not drawn) | 4350
Cc1cc2c(s1)-c1c(c(C(=O)NCC3CCC4CC3C4(C)C)nn1-c1ccc(Cl)cc1Cl)C2 (stereo not drawn) | 30.6
Cc1ccc(Cn2nc(C(=O)NC3CC(C)CCC3C(C)C)c3c2-c2sc(C)cc2C3)cc1 (stereo not drawn) | 2.5
Cc1csc2c1Cc1c(C(=O)NCC3CCC4CC3C4(C)C)nn(-c3ccc(Cl)cc3Cl)c1-2 (stereo not drawn) | 4.5
Cc1cc2c(s1)-c1c(c(C(=O)CC3CCCCC3)nn1-c1ccc(Cl)cc1Cl)C2 | 5.4
Cc1cc2c(s1)-c1c(c(C(=O)NC3C4(C)CCC(C4)C3(C)C)nn1-c1ccc(Cl)cc1Cl)C2 (stereo not drawn) | 15
Cc1ccc(Cn2nc(C(=O)NCC3CCC4CC3C4(C)C)c3c2-c2sc(C)cc2C3)cc1 (stereo not drawn) | 48.3
CC1(C)C2CCC(CNC(=O)c3nn(-c4ccc(F)cc4F)c4c3Cc3cc(Br)sc3-4)C1C2 (stereo not drawn) | 9.3

The origin of these recorded values is patent US20100215759A1.
